TESTED TARGET: T1, TDP-224 peptide (human)
T1 construct: 8-mer of human TDP-43; same ELISA method as for the biotinylated 15-mers
T1 peptide: KPFRAFAF
ASSAY: indirect ELISA, 8-mer peptide library
READOUT TYPE: binding result

ACI-7062-410H3-Ab1 (antibody, IgG1, V domains shown, also called 410H3B9; clone 7) VH: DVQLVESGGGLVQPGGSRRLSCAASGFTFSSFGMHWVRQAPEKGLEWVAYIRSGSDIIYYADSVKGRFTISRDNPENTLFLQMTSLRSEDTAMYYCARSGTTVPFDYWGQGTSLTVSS VL: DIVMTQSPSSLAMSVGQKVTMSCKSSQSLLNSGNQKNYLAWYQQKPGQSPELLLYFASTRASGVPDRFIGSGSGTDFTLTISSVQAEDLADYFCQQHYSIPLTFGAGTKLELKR	no binding
ACI-7062-412A7-Ab1 (antibody, IgG2b, V domains shown, also called 412A7B7; clone 9) VH: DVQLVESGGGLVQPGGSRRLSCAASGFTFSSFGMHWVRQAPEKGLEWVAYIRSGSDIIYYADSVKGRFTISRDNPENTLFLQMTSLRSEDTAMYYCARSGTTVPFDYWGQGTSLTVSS VL: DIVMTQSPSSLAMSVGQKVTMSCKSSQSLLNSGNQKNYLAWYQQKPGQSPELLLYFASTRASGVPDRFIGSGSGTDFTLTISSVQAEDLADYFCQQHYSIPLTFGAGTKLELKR	no binding
